B1: ATL3 (parent)
chain: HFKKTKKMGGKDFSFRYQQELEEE

Variants of: B1
Protocol Notes: protein stability index of a GFP-peptide fusion (GPS, HEK-293T) (PSI 1-6); higher = more stable;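 also: lentivirally expressed fusions sorted by FACS into six bins by GFP to DsRed ratio, PSI derived from sequencing read proportions per bin multiplied by bin number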
Test Conditions: c terminus: a fixed tail appended
# binarize protein stability index: threshold 2 inclusive, high side 1.0, low side 0.0

Reference set, count: 10
>>> print(df.to_string())
   alteration  classification
0        Y17R             1.0
1        R16K             1.0
2        F15T             1.0
3         K4T             1.0
4        F13N             1.0
5        Q18H             1.0
6        Q19G             1.0
7        F15Y             0.0
8        E20K             1.0
9         M8W             1.0

// inclusive: protein stability index at least 2? input: G10H
1.0

What do we get for L21P ?
1.0

Here is the next variant: S14C
0.0
